meta.source: patent US20060211755A1

- TARGET_UNDER_TEST: Recombinant Hepatic Lipase (Homo sapiens, UniProt P11150)
- Sequence (P11150 23-499): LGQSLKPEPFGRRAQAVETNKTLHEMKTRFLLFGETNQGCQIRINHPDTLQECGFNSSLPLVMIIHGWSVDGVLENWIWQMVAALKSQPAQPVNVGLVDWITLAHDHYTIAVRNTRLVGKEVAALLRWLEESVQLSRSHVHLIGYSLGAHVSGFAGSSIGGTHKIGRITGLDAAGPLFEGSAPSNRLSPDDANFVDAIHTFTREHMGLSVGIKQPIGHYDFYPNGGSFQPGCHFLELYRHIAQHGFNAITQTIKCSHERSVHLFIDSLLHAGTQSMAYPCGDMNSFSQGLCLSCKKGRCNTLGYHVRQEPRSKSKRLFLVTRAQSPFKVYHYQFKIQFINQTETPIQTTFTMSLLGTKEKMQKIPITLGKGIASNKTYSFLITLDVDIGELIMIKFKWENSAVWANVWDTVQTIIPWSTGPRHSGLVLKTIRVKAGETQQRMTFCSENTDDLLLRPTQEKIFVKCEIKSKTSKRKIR
- ASSAY_DETAILS: Hepatic Lipase Phospholipase Assay
- CONDITION_CONTEXT: ThioPEG substrate, DTNB, 37° C., 10 min preincubation; read-out: Hepatic Lipase Inhibition IC50
MEASURED_METRIC: pIC50
Friendly reminder that pIC50 comes from taking -log10 of the concentration in mol/L.

CCCCNC(=O)n1[nH]c2ccccc2c1=O: 6.43

Attention now shifts to the item below.
Reported pIC50 ( CCCCCNC(=O)n1c(=O)c2ccccc2n1CCc1ccccc1 ) = 7.01

* * *

- TARGET_UNDER_TEST: endothelial lipase (EL) (Homo sapiens)
- Sequence (Q9Y5X9 21-500): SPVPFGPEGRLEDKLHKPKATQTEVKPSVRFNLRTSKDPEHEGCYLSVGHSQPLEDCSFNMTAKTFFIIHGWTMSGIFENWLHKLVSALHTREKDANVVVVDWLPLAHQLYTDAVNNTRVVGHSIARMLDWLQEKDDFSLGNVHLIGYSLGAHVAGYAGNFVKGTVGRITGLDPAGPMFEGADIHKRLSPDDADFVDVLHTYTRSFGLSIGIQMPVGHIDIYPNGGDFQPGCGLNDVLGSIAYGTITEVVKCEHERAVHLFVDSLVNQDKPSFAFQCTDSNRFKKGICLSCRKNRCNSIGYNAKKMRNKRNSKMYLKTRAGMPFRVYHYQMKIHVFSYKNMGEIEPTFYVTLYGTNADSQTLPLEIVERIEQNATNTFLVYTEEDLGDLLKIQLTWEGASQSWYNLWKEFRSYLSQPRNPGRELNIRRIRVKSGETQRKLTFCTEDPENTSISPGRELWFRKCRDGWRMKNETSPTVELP
MEASURED_METRIC: IC50

O=C(NCc1ccccc1)n1[nH]c2ccccc2c1=O: 73.8 nM

// IC50 lookup, compound = CCc1ccccc1CNC(=O)n1[nH]c2ccccc2c1=O , result: 11.4 nM

* * *

MEASURED_METRIC: melting point

Solved cases (3 shown):
CCc1cccc(C)c1CNC(=O)n1c(=O)c2cccc(C(=O)O)c2n1C: > 250 °C
CCCNC(=O)n1[nH]c2ccccc2c1=O: 153 to 155 °C
CCc1cccc(C)c1CNC(=O)n1[nH]c2cccc(C(=O)O)c2c1=O: > 250 °C

Entry O=C(O)c1cccc2[nH]n(C(=O)NCCCCC3CCCCC3)c(=O)c12 , melting point reported as 196 to 198 °C

The reported melting point of the compound CCc1cccc(C)c1CNC(=O)n1c(=O)c2cccc(C(=O)O)c2n1CC(=O)O was 172 to 174 °C

# melting point of Cc1cccc(CNC(=O)n2[nH]c3ccccc3c2=O)c1 = 179 to 180 °C

Item: CCc1cccc(C)c1CNC(=O)n1[nH]c2c(C(=O)O)cccc2c1=O | melting point: > 250 °C

Quick note, melting point for Cc1cccc(C)c1CNC(=O)n1[nH]c2c(C(=O)O)cccc2c1=O landed at > 250 °C

Lookup result for Cc1ccc2c(=O)n(C(=O)NCc3ccccc3C)[nH]c2c1 ; measured melting point: 235 °C (dec.)

* * *

MEASURED_METRIC: melting point

// known answers, use as guide
CCc1cccc(C)c1CNC(=O)n1c(=O)c2cccc(C(=O)O)c2n1CC [Example 80]: > 250 °C
CCCCc1ccc(CNC(=O)n2[nH]c3cccc(C(=O)O)c3c2=O)c(C)c1 [Example 68]: 173 to 175 °C
CCc1cccc(CC)c1CNC(=O)n1c(=O)c2cccc(C(=O)O)c2n1C [Example 98]: > 250 °C
CC(C)c1cccc(C(C)C)c1CNC(=O)n1[nH]c2c(C(=O)O)cccc2c1=O [Example 72]: > 250 °C

Measured melting point of Cc1ccccc1CNC(=O)n1[nH]c2ccc(C(=O)O)cc2c1=O [Example 53] : > 250 °C

// recorded melting point for Cc1ccc(F)cc1CNC(=O)n1[nH]c2cccc(C(=O)O)c2c1=O [Example 57] : 230 °C (dec.)

Form field melting point, entry CC(C)CCCCNC(=O)n1[nH]c2ccccc2c1=O [Example 5] : 134 to 136 °C

Noted for Cc1ccccc1CNC(=O)n1[nH]c2c(C(=O)O)cccc2c1=O [Example 55] : its melting point reads > 250 °C

The recorded melting point for entry Cc1cccc(C(C)(C)C)c1CNC(=O)n1c(=O)c2cccc(C(=O)O)c2n1C [Example 97] equals > 250 °C

Per the records, this compound ( CCc1cccc(C)c1CNC(=O)n1[nH]c2ccc(C(=O)O)cc2c1=O [Example 62] ) has melting point equal to > 250 °C

Data point: Cc1ccccc1CNC(=O)n1[nH]c2ccccc2c1=O [Example 16] ; melting point = 166 to 168 °C

Documented melting point of CCCCCCNC(=O)n1[nH]c2cccc(C(=O)OC)c2c1=O [Example 99] : 63 to 65 °C

Note to self: melting point recorded for Cc1cccc(C)c1CNC(=O)n1[nH]c2cccc(C(=O)O)c2c1=O [Example 59] was > 250 °C

Per the record, O=C(O)c1cccc2[nH]n(C(=O)NCCCCc3ccccc3)c(=O)c12 [Example 75] has melting point of > 250 °C

The reported melting point of the compound CCCCCNC(=O)n1[nH]c2ccccc2c1=O [Example 2] was 119 to 120 °C

// melting point lookup, compound = CCc1cccc(CC)c1CNC(=O)n1[nH]c2cccc(C(=O)O)c2c1=O [Example 69] , result: > 250 °C

* * *

Collected melting point values appear next to each entry.

Observe how each entry below is paired with its result.
CCc1cccc(C)c1CNC(=O)n1[nH]c2cc(C(=O)O)ccc2c1=O: > 250 °C
COc1cccc(CNC(=O)n2[nH]c3ccccc3c2=O)c1: 186 to 188 °C

What the record says about Cc1ccc(F)cc1CNC(=O)n1[nH]c2c(C(=O)O)cccc2c1=O : melting point is > 250 °C

// melting point value for CCCCCCNC(=O)n1[nH]c2cccc(C(=O)O)c2c1=O : > 250 °C

GET /value?item= Cc1ccccc1CNC(=O)n1[nH]c2cccc(C(=O)O)c2c1=O &field=melting point returns > 250 °C

* * *

pIC50 listing for selected compounds.
- TARGET_UNDER_TEST: Recombinant Hepatic Lipase (Homo sapiens, UniProt P11150)
- Sequence (P11150 23-499): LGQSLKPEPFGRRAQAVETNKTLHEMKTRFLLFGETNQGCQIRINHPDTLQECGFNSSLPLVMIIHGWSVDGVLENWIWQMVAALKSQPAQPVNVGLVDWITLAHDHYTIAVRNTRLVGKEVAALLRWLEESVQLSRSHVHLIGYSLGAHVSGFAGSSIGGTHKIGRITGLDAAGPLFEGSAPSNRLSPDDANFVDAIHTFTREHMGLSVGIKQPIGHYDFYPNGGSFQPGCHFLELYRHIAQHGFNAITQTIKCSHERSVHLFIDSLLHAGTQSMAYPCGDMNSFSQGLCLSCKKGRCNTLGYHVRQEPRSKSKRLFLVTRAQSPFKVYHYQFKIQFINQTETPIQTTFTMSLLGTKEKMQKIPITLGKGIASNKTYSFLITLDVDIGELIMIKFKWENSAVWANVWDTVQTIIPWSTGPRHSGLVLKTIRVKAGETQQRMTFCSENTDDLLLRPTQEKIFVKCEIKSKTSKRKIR
- ASSAY_DETAILS: Hepatic Lipase Phospholipase Assay
- Type: biochemical
- CONDITION_CONTEXT: ThioPEG substrate, DTNB, 37° C., 10 min preincubation; read-out: Hepatic Lipase Inhibition IC50
In plain terms, pIC50 is the concentration in mol/L turned into minus its base-10 logarithm.

Please review the entries below; each comes with its answer.
CCCCCNC(=O)n1c(=O)c2ccccc2n1CCC: 7.23
CCCCCNC(=O)n1[nH]c2ccccc2c1=O [drawing 15]: 7.17

Alright, here's another compound for you.
Please fill in: pIC50 reported for CCCCNC(=O)n1c(=O)c2ccccc2n1C = 7.72
